Value source: the NIST ThermoML archive (doi:10.1016/j.fluid.2014.10.043)

Conditions: 293.2 K; 101.33 kPa; Liquid; Vibrating tube method
Classify by measured mass density: T if it is equal to or exceeds 900 kg/m3, F if it is smaller.

>  <compound>
CCCC(=O)O

>  <label>
T

$$$$
>  <compound>
CCCCCCCCC(=O)OCC [ethyl nonanoate]

>  <label>
F

$$$$
>  <compound>
CC(=O)c1ccccc1

>  <label>
T

$$$$
>  <compound>
CCOC(=O)CC(=O)OCC [diethyl 1,3-propanedioate]

>  <label>
T

$$$$
>  <compound>
CCCCN(CCCC)CCCC

>  <label>
F

$$$$
>  <compound>
CCCCCCCCO

>  <label>
F

$$$$

----------
Assay: refractive index (Na D-line) (dimensionless)
Settings: 293.2 K; 101.33 kPa; Liquid; Standard Abbe refractometry

>  <compound>
CCCC(=O)O [butanoic acid]

>  <refractive index>
1.3965

$$$$
>  <compound>
CCCCCCCCC(=O)OCC [ethyl nonanoate]

>  <refractive index>
1.4226

$$$$
>  <compound>
CCCC(=O)OCC [ethyl butanoate]

>  <refractive index>
1.3918

$$$$
>  <compound>
CCCCN(CCCC)CCCC [tributylamine]

>  <refractive index>
1.4275

$$$$
>  <compound>
CCCCCCCCO [octan-1-ol]

>  <refractive index>
1.428

$$$$
>  <compound>
CCOC(=O)CC(=O)OCC [diethyl 1,3-propanedioate]

>  <refractive index>
1.4135

$$$$
>  <compound>
CCCCC(=O)OCC [ethyl pentanoate]

>  <refractive index>
1.4125

$$$$
>  <compound>
CC(=O)c1ccccc1 [acetophenone]

>  <refractive index>
1.5361

$$$$
